Each recorded value in this set is attributed to the supplement of paper PMC10567573.

Field: protein stability index. Provide a value for each of the variants that follow.
B1: TRIM63 (parent)
chain: QEKKLSFIEALIQQYQEQLDKSTK

# Variants of: B1
# PROTOCOL_NOTES: protein stability index of a GFP-peptide fusion (GPS, HEK-293T) (PSI 1-6); higher = more stable;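 also: lentivirally expressed fusions sorted by FACS into six bins by GFP to DsRed ratio, PSI derived from sequencing read proportions per bin multiplied by bin number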
# DETAILS: c terminus: a fixed tail appended
One number for each entry.

Consider the worked cases shown below.
- VARIANT_DESCRIPTION: "A10K"
  OBSERVED: 2.39
- VARIANT_DESCRIPTION: "D20A"
  OBSERVED: 2.5
- VARIANT_DESCRIPTION: "Q18M"
  OBSERVED: 1.81
- VARIANT_DESCRIPTION: "F7D"
  OBSERVED: 4.53
- VARIANT_DESCRIPTION: "E2F"
  OBSERVED: 2.44

Record protein stability index for all entries; do not skip any.
1. K24C
2. Q18I
3. S22T

2.99
2.08
2.75

Record protein stability index for all entries; do not skip any.
1. K3C
2. Q1R
3. I8H

3.24
2.48
4.92
